# System: HeLa Kyoto;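 further: synchronized HeLa Kyoto cells, proteins quantified by TMT10plex mass spectrometry, three biological replicates, mitosis taken 0.5 h after nocodazole release, G1/S directly after double thymidine block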
# EXPERIMENTAL_DETAILS: thermal stability score vs G1/S (z-score of summed log2 fold changes over temperatures); higher = more thermally stable than in G1/S
# REPORTED_CONDITIONS: cell cycle stage: mitosis
Entries annotated with measured thermal stability score
No unit in the answer, please; the number alone is enough.

Field: example entries. Status: answers known.
SEQ	thermal stability score
MKGKEEKEGGARLGAGGGSPEKSPSAQELKEQGNRLFVGRKYPEAAACYGRAITRNPLVAVYYTNRALCYLKMQQHEQALADCRRALELDGQSVKAHFFLGQCQLEMESYDEAIANLQRAYSLAKEQRLNFGDDIPSALRIAKKKRWNSIEERRIHQESELHSYLSRLIAAERERELEECQRNHEGDEDDSHVRAQQACIEAKHDKYMADMDELFSQVDEKRKKRDIPDYLCGKISFELMREPCITPSGITYDRKDIEEHLQRVGHFDPVTRSPLTQEQLIPNLAMKEVIDAFISENGWVEDY [STUB1]	2.29
MLYLIGLGLGDAKDITVKGLEVVRRCSRVYLEAYTSVLTVGKEALEEFYGRKLVVADREEVEQEADNILKDADISDVAFLVVGDPFGATTHSDLVLRATKLGIPYRVIHNASIMNAVGCCGLQLYKFGETVSIVFWTDTWRPESFFDKVKKNRQNGMHTLCLLDIKVKEQSLENLIKGRKIYEPPRYMSVNQAAQQLLEIVQNQRIRGEEPAVTEETLCVGLARVGADDQKIAAGTLRQMCTVDLGEPLHSLIITGGSIHPMEMEMLSLFSIPENSSESQSINGL [DPH5]	1.39

Prompt: Sample MALAARLLPQFLHSRSLPCGAVRLRTPAVAEVRLPSATLCYFCRCRLGLGAALFPRSARALAASALPAQGSRWPVLSSPGLPAAFASFPACPQRSYSTEEKPQQHQKTKMIVLGFSNPINWVRTRIKAFLIWAYFDKEFSITEFSEGAKQAFAHVSKLLSQCKFDLLEELVAKEVLHALKEKVTSLPDNHKNALAANIDEIVFTSTGDISIYYDEKGRKFVNILMCFWYLTSANIPSETLRGASVFQVKLGNQNVETKQLLSASYEFQREFTQGVKPDWTIARIEHSKLLE [C2ORF47] — what was its thermal stability score?
Response: 0.76

Prompt: What value of thermal stability score has been recorded for this entry: MAPLLLQLAVLGAALAAAALVLISIVAFTTATKMPALHRHEEEKFFLNAKGQKETLPSIWDSPTKQLSVVVPSYNEEKRLPVMMDEALSYLEKRQKRDPAFTYEVIVVDDGSKDQTSKVAFKYCQKYGSDKVRVITLVKNRGKGGAIRMGIFSSRGEKILMADADGATKFPDVEKLEKGLNDLQPWPNQMAIACGSRAHLEKESIAQRSYFRTLLMYGFHFLVWFLCVKGIRDTQCGFKLFTREAASRTFSSLHVERWAFDVELLYIAQFFKIPIAEIAVNWTEIEGSKLVPFWSWLQMGKDLLFIRLRYLTGAWRLEQTRKMN [ALG5]
Response: -1.32

Prompt: Given the entry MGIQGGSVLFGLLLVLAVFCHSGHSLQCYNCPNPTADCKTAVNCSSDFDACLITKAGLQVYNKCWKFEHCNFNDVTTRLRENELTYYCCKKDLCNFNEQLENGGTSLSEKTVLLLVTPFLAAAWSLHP [CD59] , report its measured thermal stability score.
Response: -3.23

Prompt: Need thermal stability score of MHSEAEESKEVATDVFNSKNLAVQAQKKILGKMVSKSIATTLIDDTSSEVLDELYRVTREYTQNKKEAEKIIKNLIKTVIKLAILYRNNQFNQDELALMEKFKKKVHQLAMTVVSFHQVDYTFDRNVLSRLLNECREMLHQIIQRHLTAKSHGRVNNVFDHFSDCEFLAALYNPFGNFKPHLQKLCDGINKMLDEENI [TNFAIP8] , thanks.
Response: -0.108

Prompt: Field request: thermal stability score | item: MGSRVSREDFEWVYTDQPHADRRREILAKYPEIKSLMKPDPNLIWIIIMMVLTQLGAFYIVKDLDWKWVIFGAYAFGSCINHSMTLAIHEIAHNAAFGNCKAMWNRWFGMFANLPIGIPYSISFKRYHMDHHRYLGADGVDVDIPTDFEGWFFCTAFRKFIWVILQPLFYAFRPLFINPKPITYLEVINTVAQVTFDILIYYFLGIKSLVYMLAASLLGLGLHPISGHFIAEHYMFLKGHETYSYYGPLNLLTFNVGYHNEHHDFPNIPGKSLPLVRKIAAEYYDNLPHYNSWIKVLYDFVMDDTISPYSRMKRHQKGEMVLE [DEGS1]
Response: -1.88

Prompt: What does the data say about its thermal stability score? Entry: MSGEENPASKPTPVQDVQGDGRWMSLHHRFVADSKDKEPEVVFIGDSLVQLMHQCEIWRELFSPLHALNFGIGGDGTQHVLWRLENGELEHIRPKIVVVWVGTNNHGHTAEQVTGGIKAIVQLVNERQPQARVVVLGLLPRGQHPNPLREKNRQVNELVRAALAGHPRAHFLDADPGFVHSDGTISHHDMYDYLHLSRLGYTPVCRALHSLLLRLLAQDQGQGAPLLEPAP [PAFAH1B3]
Response: 1.01

Prompt: Dear colleague, I am looking for the recorded thermal stability score of the following sequence: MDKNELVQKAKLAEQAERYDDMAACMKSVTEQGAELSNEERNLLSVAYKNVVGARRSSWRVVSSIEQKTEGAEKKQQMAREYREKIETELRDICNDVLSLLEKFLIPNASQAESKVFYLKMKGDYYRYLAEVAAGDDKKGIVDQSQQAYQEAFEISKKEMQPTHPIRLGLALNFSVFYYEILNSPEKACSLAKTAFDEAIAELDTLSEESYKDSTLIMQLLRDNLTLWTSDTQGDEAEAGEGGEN [YWHAZ]
Response: -3.47

Prompt: Recorded thermal stability score of MAEQLSPGKAVDQVCTFLFKKPGRKGAAGRRKRPACDPEPGESGSSSDEGCTVVRPEKKRVTHNPMIQKTRDSGKQKAAYGDLSSEEEEENEPESLGVVYKSTRSAKPVGPEDMGATAVYELDTEKERDAQAIFERSQKIQEELRGKEDDKIYRGINNYQKYMKPKDTSMGNASSGMVRKGPIRAPEHLRATVRWDYQPDICKDYKETGFCGFGDSCKFLHDRSDYKHGWQIERELDEGRYGVYEDENYEVGSDDEEIPFKCFICRQSFQNPVVTKCRHYFCESCALQHFRTTPRCYVCDQQTNGVFNPAKELIAKLEKHRATGEGGASDLPEDPDEDAIPIT [RNF113A] , please.
Response: -4.15

Prompt: Consider the sequence shown here: MPKKFQGENTKSAAARARRAEAKAAADAKKQKELEDAYWKDDDKHVMRKEQRKEEKEKRRLDQLERKKETQRLLEEEDSKLKGGKAPRVATSSKVTRAQIEDTLRRDHQLREAPDTAEKAKSHLEVPLEENVNRRVLEEGSVEARTIEDAIAVLSVAEEAADRHPERRMRAAFTAFEEAQLPRLKQENPNMRLSQLKQLLKKEWLRSPDNPMNQRAVPFNAPK [CCDC124] What is its recorded thermal stability score?
Response: -5.08
